B1: library; numbered along this chain (parent)
chain: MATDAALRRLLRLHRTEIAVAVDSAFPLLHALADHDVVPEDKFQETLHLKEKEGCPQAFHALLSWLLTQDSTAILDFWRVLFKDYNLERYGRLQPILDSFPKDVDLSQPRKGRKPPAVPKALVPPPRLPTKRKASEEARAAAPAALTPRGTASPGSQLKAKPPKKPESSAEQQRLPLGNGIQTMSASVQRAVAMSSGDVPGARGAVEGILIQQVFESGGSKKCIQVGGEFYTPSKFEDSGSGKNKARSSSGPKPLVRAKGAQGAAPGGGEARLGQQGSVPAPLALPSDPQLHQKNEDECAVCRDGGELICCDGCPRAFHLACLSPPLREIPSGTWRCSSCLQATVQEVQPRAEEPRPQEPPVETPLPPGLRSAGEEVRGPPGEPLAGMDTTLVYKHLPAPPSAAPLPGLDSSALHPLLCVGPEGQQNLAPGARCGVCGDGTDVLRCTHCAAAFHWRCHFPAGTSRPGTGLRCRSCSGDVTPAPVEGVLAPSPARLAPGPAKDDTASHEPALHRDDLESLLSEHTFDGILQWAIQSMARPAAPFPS

Variants of: B1
Experiment Description: AIRE transcriptional activation functional score (insulin promoter-GFP; nonsense median 0, synonymous median 1) (normalised score); higher = higher AIRE activity (more reporter activation)
Conditions: with insulin promoter-GFP reporter in HEK293
Decision: AIRE transcriptional activation functional score >= 0.9 yields criterion met, all other cases yield criterion not met.

Mutation | Assigned Label
K222P | criterion not met
P401N | criterion met
E347Q | criterion met
E207W | criterion not met
G462E | criterion not met

Ask: Kindly determine if AIRE transcriptional activation functional score recorded for D4E is above or exactly 0.9.
Reply: criterion met

Ask: Kindly determine if AIRE transcriptional activation functional score recorded for Y231I is above or exactly 0.9.
Reply: criterion not met

Ask: Kindly determine if AIRE transcriptional activation functional score recorded for G219M is above or exactly 0.9.
Reply: criterion met
